Every entry's value here was drawn from patent US10676446B2.

Target: human ATX (autotaxin, ENPP2), His-tagged (Homo sapiens (Human), UniProt Q13822)
// NB: equality with 0.09 µM counts as label 0; only IC50 strictly below is label 1

Compound Smiles: COCCNC(=O)N1CCN(c2ccc3ncn(CC(=O)NCc4ccc(Cl)c(Cl)c4)c(=O)c3c2)CC1
Label: label 1
//
Compound Smiles: CN(Cc1ccc(Cl)c(Cl)c1)C(=O)Cn1cnc2ccc(N3CCN(CC(=O)Nc4ccccc4)CC3)cc2c1=O
Label: label 1
//
Compound Smiles: CC(=O)N1CCC(O)(c2ccc3ncn(CC(=O)N(C)Cc4ccc(C#N)c(Cl)c4)c(=O)c3c2)CC1
Label: label 0
//
Compound Smiles: CNC(=O)CN1CCN(c2ccc3ncn(CC(=O)N(C)Cc4ccc(Cl)c(Cl)c4)c(=O)c3c2)CC1
Label: label 1
//
Compound Smiles: CN(Cc1ccc(Cl)c(Cl)c1)C(=O)Cn1cnc2ccc(C3CCN(C(=O)C4(O)CC4)CC3)cc2c1=O
Label: label 0
//
Compound Smiles: CC(=O)N1CC(C(=O)N2CCN(c3ccc4ncn(CC(=O)N(C)Cc5ccc(Cl)c(Cl)c5)c(=O)c4c3)CC2)C1
Label: label 1
//
Compound Smiles: COC(=O)N1CCC(c2ccc3ncn(CC(=O)N(C)Cc4ccc(C#N)c(Cl)c4)c(=O)c3c2)CC1
Label: label 0

====

Target or system human ATX (autotaxin, ENPP2), His-tagged (Homo sapiens (Human), UniProt Q13822): recorded IC50 listed per item.

Compound: COC(C)C(=O)N1CCC(c2ccc3ncn(CC(=O)N(C)Cc4ccc(Cl)c(Cl)c4)c(=O)c3c2)CC1 (stereo not drawn)
IC50 [nM]: 8
--
Compound: O=C(Cn1cnc2ccc(N3CCN(C(=O)C4CCC4)CC3)cc2c1=O)NCc1ccc(Cl)c(Cl)c1
IC50 [nM]: 11
--
Compound: CC(=O)N1CCN(c2ccc3ncn(CC(=O)N(C)Cc4ccc(Cl)c(C#N)c4)c(=O)c3c2)CC1
IC50 [nM]: 8
